# Measured On: UniProtKB P21730
# Sequence (P21730 1-350): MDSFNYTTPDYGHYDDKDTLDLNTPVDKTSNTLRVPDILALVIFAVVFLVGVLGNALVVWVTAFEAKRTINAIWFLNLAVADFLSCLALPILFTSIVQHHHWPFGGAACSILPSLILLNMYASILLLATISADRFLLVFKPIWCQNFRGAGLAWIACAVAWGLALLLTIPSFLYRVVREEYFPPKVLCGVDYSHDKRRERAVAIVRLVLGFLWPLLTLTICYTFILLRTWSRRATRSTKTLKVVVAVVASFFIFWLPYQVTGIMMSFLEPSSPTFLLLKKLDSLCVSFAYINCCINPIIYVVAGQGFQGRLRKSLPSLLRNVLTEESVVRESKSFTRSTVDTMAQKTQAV
# Measurement Description: β-arrestin2 recruitment, two-subunit luciferase reporter
# Assay type: cell-based
# Design: expressed in transfected cells
# Condition Info: read-out: IC50 (nM) at 100 nM C5a, beta-arrestin inhibition; 100 nM C5a, Table 14
Assay Readout: IC50 (nM)
The figure you give is taken to be in nM; do not add the unit.

Exercise: IC50 for Cc1ccc(NC(=O)[C@H]2CCCN(C(=O)c3c(C)cccc3F)[C@H]2c2ccc(NC3CCCC3)cc2)cc1C(F)(F)F [Avacopan] ?
Key: 34

====

# Measured On: C5aR1 (Homo sapiens, UniProt P21730)
# Measurement Description: β-arrestin2 recruitment, two-subunit luciferase reporter
# Assay type: cell-based
# Design: expressed in transfected cells
# Condition Info: 10 nM C5a, Table 9; read-out: IC50 for β-arrestin signaling
Assay Readout: IC50 (nM)
The figure you give is taken to be in nM; do not add the unit.

Exercise: IC50 for Cc1ccc(NC(=O)[C@H]2CCCN(C(=O)c3c(C)cccc3F)[C@H]2c2ccc(NC3CCCC3)cc2)cc1C(F)(F)F ?
Key: 9.95

====

# Measured On: C5aR1 (Homo sapiens)
# Sequence (P21730 1-350): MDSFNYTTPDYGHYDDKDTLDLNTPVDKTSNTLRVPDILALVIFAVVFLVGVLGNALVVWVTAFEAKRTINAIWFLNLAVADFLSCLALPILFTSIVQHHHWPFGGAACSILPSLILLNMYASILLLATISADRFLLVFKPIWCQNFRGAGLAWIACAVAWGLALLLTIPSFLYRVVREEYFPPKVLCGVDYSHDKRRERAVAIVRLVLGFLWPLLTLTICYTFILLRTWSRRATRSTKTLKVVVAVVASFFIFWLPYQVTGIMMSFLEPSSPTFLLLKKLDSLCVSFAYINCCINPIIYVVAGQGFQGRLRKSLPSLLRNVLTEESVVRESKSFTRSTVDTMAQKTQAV
# Measurement Description: GeneBLAzer assay, inhibition of Gα signaling
# Assay type: cell-based
# Condition Info: read-out: IC50 (nM) 10 nM C5a, Gα signaling; 10 nM C5a, Table 13
Assay Readout: IC50 (nM)
The figure you give is taken to be in nM; do not add the unit.

Exercise: IC50 for Cc1ccc(NC(=O)[C@H]2CCCN(C(=O)c3c(C)cccc3F)[C@H]2c2ccc(NC3CCCC3)cc2)cc1C(F)(F)F ?
Key: 2.2

====

# Measured On: C5aR1 (Homo sapiens)
# Sequence (P21730 1-350): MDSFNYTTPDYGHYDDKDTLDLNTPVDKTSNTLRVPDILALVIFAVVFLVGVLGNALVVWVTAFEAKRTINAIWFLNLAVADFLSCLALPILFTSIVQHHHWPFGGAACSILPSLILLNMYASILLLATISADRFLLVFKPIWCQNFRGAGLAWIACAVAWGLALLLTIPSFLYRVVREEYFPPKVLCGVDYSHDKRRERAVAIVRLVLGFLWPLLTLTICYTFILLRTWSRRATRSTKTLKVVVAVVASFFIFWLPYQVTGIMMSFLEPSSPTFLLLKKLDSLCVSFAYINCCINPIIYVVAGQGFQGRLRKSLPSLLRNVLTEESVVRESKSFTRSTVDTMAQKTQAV
# Measurement Description: GeneBLAzer assay, inhibition of Gα signaling
# Assay type: cell-based
# Condition Info: read-out: IC50 (nM) 100 nM C5a, Gα signaling, extrapolated data; 100 nM C5a, Table 13, extrapolated
Assay Readout: IC50 (nM)
The figure you give is taken to be in nM; do not add the unit.

Exercise: IC50 for Cc1ccc(NC(=O)[C@H]2CCCN(C(=O)c3c(C)cccc3F)[C@H]2c2ccc(NC3CCCC3)cc2)cc1C(F)(F)F ?
Key: 0.7
